- Tested on: Pseudotyped HCV GT1b particles (HCVpp), entry into Huh7-high CD81 cells
- protocol_details: microbe, parasite or virus in culture
- Format: cell-based, HCV GT1b Con1 strain
- details: Hepatitis C virus, GT1B, 72 h, read-out: HCVpp GT-1b (EC50, μM)
recorded_endpoint: EC50 (µM)
API: value field is a number in µM; no unit string.

1. COc1ccc(-c2c(Cl)cc(Nc3n[nH]c(N)n3)cc2C(F)(F)F)cc1S(=O)(=O)NC1CCN(C(=O)OC(C)(C)C)CC1 ... 0.003
2. CNS(=O)(=O)c1ccc(-c2c(Cl)cc(Nc3n[nH]c(N)n3)cc2Cl)cc1 ... 0.013
3. N#Cc1cc(-c2c(Cl)cc(Nc3n[nH]c(N)n3)cc2Cl)ccc1Cl ... 0.472

*Q* Hello, I am looking for reported EC50 with Pseudotyped HCV GT1b particles (HCVpp), entry into Huh7-high CD81 cells for Nc1nc(Nc2cc(Cl)c(-c3ccc(NC(=O)C4CCC(F)(F)CC4)cc3)c(Cl)c2)n[nH]1 . Could you help?
*A* 0.013

*Q* Do the same for COc1ccc(-c2c(Cl)cc(Nc3n[nH]c(N)n3)cc2Cl)cc1 please
*A* 0.353

*Q* Do the same for Nc1nc(Nc2ccc(-c3ccccc3F)c(Cl)c2)n[nH]1 please
*A* 2.88

*Q* Do the same for Nc1nc(Nc2cc(Cl)c(-c3ccc(OC[C@H]4CCCN4)cc3)c(C(F)(F)F)c2)n[nH]1 (stereo in doubt) please
*A* 0.193
